target: NKp30 on human NK cells (human) (UniProt O14931); assay: cell-based or functional assay
Sequence (O14931 19-201): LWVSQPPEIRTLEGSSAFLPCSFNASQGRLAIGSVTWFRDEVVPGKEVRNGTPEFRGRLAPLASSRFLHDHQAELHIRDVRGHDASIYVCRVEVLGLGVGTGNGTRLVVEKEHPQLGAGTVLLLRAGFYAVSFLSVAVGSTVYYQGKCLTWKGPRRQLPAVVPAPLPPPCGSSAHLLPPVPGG
Lab note: compare A549 EC50 with PBMC (pM) with 200 pM, writing satisfied if less and not satisfied if equal or more.

Here's what some known entries look like.
INSERT INTO results (binder, classification) VALUES
  ('ΔB7-H6_S3#27-SEED-PGLALA (bispecific antibody, part only; not given: SEED Fc chains and hu225 EGFR Fab, part only) chain, part: DLKVEMMAGGTQITPLNDNVTIFCNIFYSQPLNITTMGITWFWKSLTFDKEVKVFEFWGDHQEAFRPGAIVSPWRLKSGDASLRLPGIQLEEAGEYRCEVIVTPYKAQGTVQLEVVASPAS', 'not satisfied'),
  ('ΔB7-H6_S3#18-SEED-PGLALA (bispecific antibody, part only; not given: SEED Fc chains and hu225 Fab, part only) chain, part: DLKVEMMAGGTQITPLNDNVTIFCNIFYSQPLNITYMGITWFWKSLTFDKEVKVFEFWGDHQEAFRPGAIVSPWRLKSGDASLRLPGIQLEEAGEYRCEVVVTPYKAQGTVQLEVVASPAS', 'satisfied');

Prompt: Here's an entry: ΔB7-H6_S3#14-SEED-PGLALA (bispecific antibody, part only; not given: SEED Fc chains and hu225 Fab, part only) chain, part: DLKVEMMAGGTQITPLNDNVTIFCNIFYSQPLNITTMGITWFWKSLTFDKEVKVFEFYGDHQEAFRPGAIVSPWRLKSGDASLRLPGIQLEEAGEYRCEVVVTPYKAQGTVQLEVVASPAS . Is its A549 EC50 with PBMC (pM) below 200 pM?
Completion: not satisfied
